# testDetails: Quantitative High-Throughput drug screen in 47 multiple myeloma cell lines against the NCATS MIPE library collection: AMO1_DSMZ cell viability assay (AID 1918927; further: nearly all actives have a fitted effect of over 30% in size)
# conditionSet: AMO1 myeloma cells viability, CellTiter-Glo ATP luminescence, 48 h; series mostly up to 45.8 µM
Records with an inconclusive call do not appear. Active and inactive are the calls of the source. The call rests on the fitted dose curve; in most records, active means well fitted cell-killing curve with a large enough effect; inconclusive means small, poorly fitted or top-dose-only effect, or effect the other way; inactive means no such curve, though single readings can be large or run the other way.
Possible outcomes: 1 (yes) = active, 0 (no) = inactive

compound: Cc1cccc(-c2[nH]ncc2-c2ccc3ncccc3n2)n1
classAssignment: 0 (no)

compound: Clc1ccc(C(Cn2ccnc2)OCc2ccsc2Cl)c(Cl)c1 (stereo unspecified)
classAssignment: 1 (yes)

compound: CC(C)Oc1ccc2c(=O)c(-c3ccccc3)coc2c1
classAssignment: 0 (no)

compound: COc1ccc2cc([C@H](C)C(=O)O)ccc2c1
classAssignment: 0 (no)

compound: Cc1cccc(C#Cc2ccccc2)n1
classAssignment: 0 (no)

compound: Clc1ccc(C(Cn2ccnc2)OCc2ccc(Sc3ccccc3)cc2)c(Cl)c1 (stereo unspecified)
classAssignment: 1 (yes)

###

# assayedSystem: Peroxisome proliferator-activated receptor delta (Homo sapiens)
# testDetails: qHTS assay for small molecule antagonists of peroxisome proliferator-activated receptor delta signaling (AID 588535)
# conditionSet: HEK293T PPARd-UAS-bla, beta-lactamase FRET ratio, 18 h; series mostly up to 76.7 µM
Inconclusive results are not listed. Calls of active or inactive are those of the source. The call rests on the fitted dose curve; in most records, active means well fitted inhibition curve with a large enough effect in the signal ratio, with a control signal flat (not every such curve was filed as active); inconclusive means small, poorly fitted or top-dose-only effect, or effect the other way, or a change in a side signal; inactive means no such curve, though single readings can be large or run the other way; the % refers to the signal ratio. Peptide text beside a SMILES is read from it.
propertyLabel: outcome

molecule: COC(=O)[C@H](Cc1ccccc1)NC(=O)[C@@H](N)CC(=O)O (H-Asp-Phe-OMe)
observedMeasurement: inactive
--
molecule: COc1c2occc2cc2ccc(=O)oc12
observedMeasurement: inactive
--
molecule: Cc1ccc(C)c(OCCCC(C)(C)C(=O)O)c1
observedMeasurement: inactive
--
molecule: COc1cc(OC)c(C(=O)CCCN2CCCC2)c(OC)c1
observedMeasurement: inactive
--
molecule: CCCCC(CC)COC(=O)C(C#N)=C(c1ccccc1)c1ccccc1 (stereo unspecified)
observedMeasurement: inactive
--
molecule: CS(=O)(=O)OCCCCOS(C)(=O)=O
observedMeasurement: inactive

###

# testDetails: qHTS profiling for inhibitors of Plasmodium falciparum (DD2) proliferation (AID 743323)
# conditionSet: lower = more inhibition; at 28.7 µM (top of the series) unless noted
Could you please classify the records by activity, percent of control using these ranges: lower level: < 4%; middle level: ≥ 4% and < 90%; upper level: ≥ 90%

molecule: C[C@@H](N)C1CCC(C(=O)Nc2ccncc2)CC1 (stereo not given in full)
classAssignment: upper level
//
molecule: CCN(CC)CCOc1ccc(Nc2ncc3cc(-c4c(Cl)cccc4Cl)c(=O)n(C)c3n2)cc1
classAssignment: lower level
//
molecule: COc1cc(Nc2c(C#N)cnc3cc(OCCCN4CCN(C)CC4)c(OC)cc23)c(Cl)cc1Cl
classAssignment: middle level
//
molecule: Cc1cccc(C)c1OCC(=O)N[C@@H](Cc1ccccc1)[C@@H](O)C[C@H](Cc1ccccc1)NC(=O)[C@H](C(C)C)N1CCCNC1=O
classAssignment: lower level
//
molecule: O=c1cc(N2CCOCC2)oc2c(-c3ccccc3)cccc12
classAssignment: upper level
//
molecule: Cc1nc(Nc2ncc(C(=O)Nc3c(C)cccc3Cl)s2)cc(N2CCN(CCO)CC2)n1
classAssignment: middle level
//
molecule: Cc1ccc(NC(=O)c2ccc(CN3CCN(C)CC3)cc2)cc1Nc1nccc(-c2cccnc2)n1
classAssignment: middle level
//
molecule: CCOC(=O)C1=C(O)C(=O)N(Cc2ccccc2)C1
classAssignment: middle level

Data credit: PubChem BioAssay (NCATS)
